Reference source: patent US20160251403A1

Target: DPA10201-DPB10101
Test: Competitive MHC class II binding assay, DPA10201-DPB10101
Settings: read-out: HLA-DPA10201-DPB10101; positive binding at cutoff 1000 nM
No end group written: not given here.

>  <chain-sequence>
ESAYLAYRNQSLDLAE [pep-009]

>  <measurement-target>
DPA10201-DPB10101

>  <IC50>
< 1 µM

$$$$

----------
Assay: Solubility of peptides in aqueous solutions at different pH (visual inspection, OD, HPLC)
Type: physicochemical
Settings: pH 7, visual inspection
No end group written: not given here.

>  <chain-sequence>
RIEYIQQNGVVEERSYPYVARR [Peptide 140]

>  <Solubility at pH 7 (visual inspection)>
Clear

$$$$
>  <chain-sequence>
RREALAQTHSAIAVIIGIKDLDAR [Peptide 144]

>  <Solubility at pH 7 (visual inspection)>
Clear

$$$$
>  <chain-sequence>
RHAVNIVGYSNAQGVDYWIVR [Peptide 136]

>  <Solubility at pH 7 (visual inspection)>
Slight turbid

$$$$
>  <chain-sequence>
RRREALAQTHSAIAVIIGIKDLDAR [Peptide 145]

>  <Solubility at pH 7 (visual inspection)>
Clear

$$$$
>  <chain-sequence>
RRREALAQTHSAIAVIIGIKDLDARR [Peptide 146]

>  <Solubility at pH 7 (visual inspection)>
Clear

$$$$
>  <chain-sequence>
RRIEYIQQNGVVEERSYPYVARR [Peptide 141]

>  <Solubility at pH 7 (visual inspection)>
Clear

$$$$
>  <chain-sequence>
HAVNIVGYSNAQGVDYWIVR [pep-058]

>  <Solubility at pH 7 (visual inspection)>
Slight turbid

$$$$
>  <chain-sequence>
RREALAQTHSAIAVIIGIKDLDA [Peptide 143]

>  <Solubility at pH 7 (visual inspection)>
Slight turbid

$$$$

----------
Molecular target: DRB1_1302 (Homo sapiens, UniProt P01903+P01911, A100E/A169T/K41T/L162R/M171V/P40S/Q125H/Q178H/Q39Y/Q99D/R42S/S66N/T262R/V115G/W38E/Y61H)
Assay: Competitive MHC class II binding assay, DRB1_1302;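 further: purified HLA class II protein incubated two to four days with a radiolabeled reference binder and test peptide at six concentrations over a 100,000-fold range, complex-bound radioactivity counted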
No end group written: not given here.

>  <chain-sequence>
QQYDIKYTWNVPKIA [pep-031]

>  <IC50>
< 1000 nM

$$$$
>  <chain-sequence>
VMGDDGVLASAIATHAKIRD [pep-099]

>  <IC50>
< 1000 nM

$$$$
>  <chain-sequence>
KSENVVVTVKLVGDNGVLAS [pep-109]

>  <IC50>
< 1000 nM

$$$$
>  <chain-sequence>
ESVKYVQSNGGAI [HDM201, reference compound]

>  <IC50>
< 1000 nM

$$$$
>  <chain-sequence>
TNASSINGNAPAEIDLRQM [pep-041]

>  <IC50>
< 1000 nM

$$$$
>  <chain-sequence>
LVGDNGVLASAIATHAKIRD [pep-110]

>  <IC50>
< 1000 nM

$$$$
>  <chain-sequence>
HRGKPFQLEAVFEANQNTKT [pep-091]

>  <IC50>
< 1000 nM

$$$$
>  <chain-sequence>
NYSQIYPPNVNKIREA [HDM101A, reference compound]

>  <IC50>
< 1000 nM

$$$$
>  <chain-sequence>
KGQQYDIKYTWNVPKIA [pep-126]

>  <IC50>
< 1000 nM

$$$$
>  <chain-sequence>
DLRQMRTVTPIRMQGGSGS [HDM203B, reference compound]

>  <IC50>
< 1000 nM

$$$$
>  <chain-sequence>
SYYRYVAREQS [HDM205, reference compound]

>  <IC50>
< 1000 nM

$$$$
>  <chain-sequence>
GVLASAIATHAKIR [HDM26B, reference compound]

>  <IC50>
< 1000 nM

$$$$
